Provide the recorded folding stability dG unfold for the entries that follow.
- test method notes: folding stability dG unfold from trypsin proteolysis; higher = more stable

As a guide, the following entries are already answered.
construct sequence	folding stability dG unfold
SAGGMKYLVTITITDPDTGQERVIEVEFPDMTPEEIKEAAEELAEEIASEQGLNLKVEVEVTPIPLLSAGGS [r8_185_JUSTAS]	3.95 kcal/mol
SAGKITIEYDKETNTVTVTIEIEIEVINEDGSIEKKKITITVKVKVDKKTNKVELLSLDEILKKLEELLSAG [r5_239_TrROS_Hall]	2.92 kcal/mol
SAGGFWLKNPNGHYIQVNVEVEWEPRRDPDNGKPTWEPKIEINVEVYDPNGEKRPIPEDQAKDLLKKLSAGG [r13_809_TrROS]	0.604 kcal/mol
SAGGSAGGSAGEEKETLTLVLPLEDMSPEEIAKLLEAAGYKVTVEEKDGLLVVKIERKPPSAGGSAGGSAGG [r11_707_TrROS_Hall]	2.57 kcal/mol
SAGGSASMITSTLTDPSTGTSSTLPTEVLQKLLDENPPDSNLVLPTGPKPVTVKVEPEKGLATFTGSAGGSA [r15_350_JUSTAS]	0.153 kcal/mol

Need folding stability dG unfold for each of these sequences.
1. GKYYLVNIVVVNEDNKSLVFPKVFPENDPEKVLEEIKKLLEELGFKAKKLITVFEKLPDGNVLVNAVVEVGS [r1_281_TrMRF]
2. SAGGSAGGSAGVELPPSLSAEVTPVPGKPGLSRVTITLPDGVVRTIDLERKGDKWIVNPRSAGGSAGGSAGG [r11_177_JUSTAS]
3. SAGGSAGGSAGGSDVKIEVERGPNGYYTVTIELNGKPKIIPFPPGRPPEDAKDEIKDLLSAGGSAGGSAGGS [r4_7_TrROS]
4. SAGGSAGGSAGDNYVMITHTIPFPPGEPLEIKIPPGAKIDDIDPERDPGNGTITVSIWFRSAGGSAGGSAGG [r11_701_TrROS]
5. MPAISIEEIIKLAKEAGKPAPPTVIVFNYKFGNTTRTLPVPLSEPVSLAEVEAAIKAADPNVTEITLTFVPS [r1_135_JUSTAS]

Result:
3.79 kcal/mol
-0.0818 kcal/mol
0.554 kcal/mol
0.491 kcal/mol
0.551 kcal/mol

Need folding stability dG unfold for each of these sequences.
1. SAGGMELPPEVKTIAEKLEAEGYDVLAVPVGDSYVIAVDGKVAATPEEFEKLKKIPGVKKLITIDLPSAGGS [r16_275_TrMRF]
2. SAGGMNVTVTVELVPLPDEPVLFVTVETEDGSVSVITFDPATGTATVLKVSPTKTEITTVPAEDILLASAGG [r13_328_TrMRF]
3. SAGIFRFPDGQEITIPYYARTPNGKITPSEIKEQIKEFLAEQPGVKITEIEVEHEDNYVRVTITVRLPKSAG [r5_688_TrROS]
4. SAGGMVTVERGPENRVITITLPPSVPEKVDELAAKLGTDYVTTEPLPEGDLVRYTIYVPGDNPALLESAGGS [r16_479_JUSTAS]
5. SDIKIENYERNPGNGMYMWTVKLPDDGKKIEIMYPPGGIYISVEHPGKKKMFPFKSWEDMLDQVKDLLKNSA [r9_527_TrROS]

Result:
0.432 kcal/mol
1.8 kcal/mol
1.46 kcal/mol
0.0152 kcal/mol
1.24 kcal/mol

Need folding stability dG unfold for each of these sequences.
1. SMKYVKILLTLKGKPHVITIPSSLSLEEIIDKAIEFAKELGYKDIPKEELKILKVEENPDEEGSSSIIIGSA [r9_1053_TrMRF]
2. SAGGSAGGKITINGKEYEIVEVKYDKETNTLHFLIKNKDGTLLKISISPNGKIEIKEVPAEELLSAGGSAGG [r6_699_TrROS_Hall]
3. DVVIDIDELKKAIEKAKPGEVLELTVKVKDKATGKEYTVRVTVTVNPDGKTVTVTVVNEETGEVIETITLPS [r1_165_TrROS_Hall]
4. SAGLKVKIVKAEVKNGYLTLEVEVTGKDGSKKPFKIKIKLKPVPKPKPVFKFTKLPNGEIKVEVFDPSSAGG [r19_172_TrMRF]

Result:
3.48 kcal/mol
3.41 kcal/mol
3.94 kcal/mol
2.76 kcal/mol

Need folding stability dG unfold for each of these sequences.
1. SADKIKIPPGFQIFGPNGQPIRPGTEVEVEDIEPHPGGGEFMFEVKIKSPDDGEEHNWPIMIRFPPAGKSAG [r14_258_TrROS]
2. SAGGSMAEPGPMNMTLSFDGIEKEFSVEITVRKRPDGTEVLELRLPDGVPLTLPAAEAAKIVDMSGSAGGSA [r2_297_JUSTAS]
3. SAGKFKITSIKPLYVTTPADAPPVKKPYLVIELDAEDPEKARELAEKLTGAPVLVVEDPETGTATIVIDSAG [r5_907_TrMRF]
4. SAGGGMTVTIEVEGSIKKSIKGISYKDDKEKKESNKNKYLKKTITVTLTAEDDPNAAAAAIAALGLGSAGGS [r16_467_JUSTAS]
5. SAGGSAGGSGVLVRITATHPDGSTEEVLEIEVPNDENDPAKLKAIAEELAKKAGMKNIKIELLSAGGSAGGS [r12_569_JUSTAS]
6. SSPMTVEELLERHPNLLVVRLPDGTVYLFDPEKETLYTVTPGTGEVTVTPLSLEELLALLPAAGHEVLPLSA [r9_721_JUSTAS]
7. SAGGSAGGSAGEPKLILVEVEGYPDPESNLVYVEFPNGDIATFAVDSAAPDQPVLVLVNPSAGGSAGGSAGG [r11_621_TrMRF]

Result:
0.755 kcal/mol
0.549 kcal/mol
0.121 kcal/mol
0.144 kcal/mol
1.95 kcal/mol
1.74 kcal/mol
0.378 kcal/mol

Ask: Consider the sequence SAGGSAGGSAKKVKIEEKDGELTITVEPGEKVLIVYPDGTVEEVEVKEGDTITLPPGAKVLPSAGGSAGGSA [r18_452_TrROS_Hall] . State its measured folding stability dG unfold.
Result: 0.513 kcal/mol

====

- test method notes: folding stability dG unfold from trypsin proteolysis; higher = more stable
Give true (1) when the value for folding stability dG unfold is at least 0.3 kcal/mol. Give false (0) when it is less.

construct sequence	assigned class
SAGGSAGGMVFENLSEEEAKIIAKNIAENFKKKYPNVKIKVEAEVYKLPNPKVIVVIKLEIEEESAGGSAGG [r6_787_TrMRF]	true (1)
SAGGSAGGSKKKKKKKKKIKVLIRNKKTGKWFEAEAEVVDGELYIKVNGKIYKIKGPVEIELVSAGGSAGGS [r12_683_TrROS_Hall]	true (1)
SAGGSAKKIKIFSLEELRERFPDLSEEELKKRAEELAKELAERLKEEGKPVEVEIVEVKLPEEEKKSAGGSA [r15_287_TrROS_Hall]	true (1)
SAGGSAGGSAGIWIPIKDPKEAVDYIQEWFHKKGGYDINIEPTEVYPDGWVRVEINIEPKSAGGSAGGSAGG [r17_430_TrROS]	false (0)
SAGGSAGGSPGFIIRVRTWERDPKDGKWKPKRERPLTFPPDDADDFADKLNSESPNVEVEIMPSAGGSAGGS [r12_342_TrROS]	false (0)
SAGMTFEVRYPLPPGQTHKEAREEVKDMVESIAREFMPEGWKIEPKDIDVDPDKGWIEYKVDIEIPPGMSAG [r5_146_TrROS]	true (1)
SAGGSAGGSEDKYIIRVEVLLPNKKRTYVLEEPEKGIEAFKKRLEKEYPDEPIVEVRIEVLPASAGGSAGGS [r12_429_TrMRF]	true (1)
SNYLMIRIKEIDPNNPNKIKIEDIHPMPDNGNVQINIEHPGQEIYVMFNSADDAEEFINTLLKNYGLKPESA [r9_258_TrROS]	true (1)

Ask: Assess whether reported folding stability dG unfold for SSPEEDLEEIEITVTNPNDPRPSFVKVTRSPEGYEATFTLPDGKTVKIPPELGLEEIKKLPSSFTITILPSA [r9_781_JUSTAS] sits at 0.3 kcal/mol or higher.
Result: false (0)

Ask: Assess whether reported folding stability dG unfold for SAGSLKPGDLLYVRIYVYNPDGELLGEIDELVETEEEAERRLRELAREIEERLGRNVRVLAEIYRYPRLSAG [r5_232_TrMRF] sits at 0.3 kcal/mol or higher.
Result: true (1)

Ask: Assess whether reported folding stability dG unfold for SARIRFPDGKPIDMEIVNIHRTPNGLTITIVLRHKDEYRVITFEIPPDGEIRIKSVERVPLPPGDPALVSAG [r14_13_TrROS] sits at 0.3 kcal/mol or higher.
Result: true (1)

Ask: Assess whether reported folding stability dG unfold for SAGGGSTTTYSIPEGPLTLEVTTVTVGDGTVKKTVVTTPEGKRTEIPPSNPITIPPNWTVTSSVTLTSAGGS [r16_669_JUSTAS] sits at 0.3 kcal/mol or higher.
Result: false (0)

Ask: Assess whether reported folding stability dG unfold for SAMTTTETFEEGDYVYTVITTKIPSSLPPDSVVTIPVTTPLGAESEVVSEPGGTITVKVRLKKEDPELLSAG [r14_754_JUSTAS] sits at 0.3 kcal/mol or higher.
Result: false (0)

Values were extracted from the supplement of paper PMC12764529.
